FYI, the data here is from paper PMC4367188.

Assay: PBS solubility
Assay type: physicochemical
Settings: aqueous buffer
parameter: solubility (µM)
Numbers only, in µM.

Report solubility for COc1ccc(C(=O)NCc2cc(C(C)C)no2)cc1OC1CCN(C)CC1 [ML352] please. 98.2

----------
Experiment: pharmacokinetics in male Sprague-Dawley rats
Settings: rat, plasma, po, 2.3 mg/kg
parameter: Cmax (ng/mL)
Give bare numbers, in ng/mL.

Report Cmax for COc1ccc(C(=O)NCc2cc(C(C)C)no2)cc1OC1CCN(C)CC1 please. 32.6

----------
Molecular target: P450 2C9 (Homo sapiens, UniProt P11712)
Sequence (P11712 whole entry): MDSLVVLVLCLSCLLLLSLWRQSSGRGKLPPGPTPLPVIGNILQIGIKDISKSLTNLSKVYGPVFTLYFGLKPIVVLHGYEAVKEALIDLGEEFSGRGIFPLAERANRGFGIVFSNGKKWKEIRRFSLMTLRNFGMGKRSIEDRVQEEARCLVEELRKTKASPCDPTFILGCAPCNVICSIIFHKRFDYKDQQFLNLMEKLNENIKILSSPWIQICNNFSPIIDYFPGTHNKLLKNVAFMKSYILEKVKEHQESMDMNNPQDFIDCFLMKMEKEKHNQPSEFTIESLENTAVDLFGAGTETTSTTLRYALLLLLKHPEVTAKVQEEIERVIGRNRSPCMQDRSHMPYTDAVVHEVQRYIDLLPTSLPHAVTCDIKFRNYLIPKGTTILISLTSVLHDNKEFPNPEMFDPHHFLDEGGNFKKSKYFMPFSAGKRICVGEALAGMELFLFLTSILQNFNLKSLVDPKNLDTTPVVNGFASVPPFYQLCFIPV
parameter: IC50

Report IC50 for COc1ccc(C(=O)NCc2cc(C(C)C)no2)cc1OC1CCN(C)CC1 please. > 30 µM
